Recorded pKd for the following binders
Target: T1, Recombinant Human Insulin Receptor (28-956) (human, UniProt P06213 28-956)
T1 construct: range 28-956; Bought soluble receptor used as the analyte; also called soluble insulin receptor; SIR
Assay: SPR (BIAcore), peptide immobilized on CM5 by amine coupling, SIR as analyte 0.781-100 nM
Keep in mind that pKd stands for -log10 of concentration in molar terms.

INSERT INTO measurements (binder, measurement_label, assay_value) VALUES
  ('CASDIVEGLYIVLAER (Chemically synthesized by the Fmoc method; immobilized on a CM5 sensor chip by amine coupling (200 RU) for the Biacore assay; also called Peptide 14) [peptide P14]', 'pKd', 5.80),
  ('CASDIVEGIYL (Chemically synthesized; immobilized on a CM5 sensor chip by amine coupling (130 RU) for the Biacore assay; also called Peptide 15) [peptide P15]', 'pKd', 4.62);

Report pKd for CQHILGSDIVEGIYL (Chemically synthesized; immobilized on a CM5 sensor chip by amine coupling (270 RU) for the Biacore assay; also called Peptide 21) [peptide P21] please.
4.92
